System Name: Muscarinic acetylcholine receptor M2 (Homo sapiens, UniProt P08172); also: assay procedure not described here
Sequence (P08172 whole entry): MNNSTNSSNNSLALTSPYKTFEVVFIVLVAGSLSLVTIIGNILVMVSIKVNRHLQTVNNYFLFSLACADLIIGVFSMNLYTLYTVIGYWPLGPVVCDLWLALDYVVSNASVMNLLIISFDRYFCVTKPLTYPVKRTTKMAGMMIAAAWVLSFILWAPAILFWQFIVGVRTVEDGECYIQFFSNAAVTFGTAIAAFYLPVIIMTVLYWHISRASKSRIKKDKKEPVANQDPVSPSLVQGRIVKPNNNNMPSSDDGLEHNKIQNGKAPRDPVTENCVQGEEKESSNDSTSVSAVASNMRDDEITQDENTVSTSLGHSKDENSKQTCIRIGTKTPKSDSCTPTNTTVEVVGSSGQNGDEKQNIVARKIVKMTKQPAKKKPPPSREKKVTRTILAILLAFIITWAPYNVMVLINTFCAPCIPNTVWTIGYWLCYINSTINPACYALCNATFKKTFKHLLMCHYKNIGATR
Format: functional, cell-based
Value Type: AC50

Below are 2 molecules. Give each one its AC50.
1. CNCCCC1c2ccccc2C=Cc2ccccc21
2. CCCCNc1ccc(C(=O)OCCN(C)C)cc1

["1.8 µM", "> 10 µM"]

Okay, here is my list. What is AC50 for each of these?
1. CC(=O)OCC(=O)[C@@]1(O)CC[C@H]2[C@@H]3CCC4=CC(=O)CC[C@]4(C)C3=CC[C@@]21C [ANECORTAVE ACETATE]
2. COc1cc2nccc(Oc3ccc(NC(=O)Nc4cc(C)on4)c(Cl)c3)c2cc1OC
3. Nc1nc(O)c2ncn(COC(CO)CO)c2n1
4. CC(C)OC(=O)C(C(=O)OC(C)C)=C1SC=CS1 [MALOTILATE]
5. CCCCCCOC(=O)CCC(=O)CN [HEXAMINOLEVULINATE]
6. CN(c1nccc(=O)[nH]1)C1CCN(c2nc3ccccc3n2Cc2ccc(F)cc2)CC1
7. CC(=O)O[C@H]1C[C@@H]2CC[C@@H]3[C@H](CC[C@@]4(C)[C@H]3C[C@H]([N+]3(C)CCCCC3)[C@@H]4OC(C)=O)[C@@]2(C)C[C@@H]1[N+]1(C)CCCCC1
8. CC(=N)N1CC[C@H](SC2=C(C(=O)O)N3C(=O)[C@H]([C@@H](C)O)[C@H]3C2)C1

["> 10 µM", "> 30 µM", "> 30 µM", "> 30 µM", "> 30 µM", "> 30 µM", "> 10 µM", "> 300 µM"]

Data credit: ChEMBL document CHEMBL5291721
